Numbers sourced from patent US20260365670A1.

- systemUnderTest: EGFR (C797S L858R) (Homo sapiens, UniProt P00533, C797S/L858R)
- Construct: purchased signalchem
- Sequence (P00533 25-1210 C797S/L858R): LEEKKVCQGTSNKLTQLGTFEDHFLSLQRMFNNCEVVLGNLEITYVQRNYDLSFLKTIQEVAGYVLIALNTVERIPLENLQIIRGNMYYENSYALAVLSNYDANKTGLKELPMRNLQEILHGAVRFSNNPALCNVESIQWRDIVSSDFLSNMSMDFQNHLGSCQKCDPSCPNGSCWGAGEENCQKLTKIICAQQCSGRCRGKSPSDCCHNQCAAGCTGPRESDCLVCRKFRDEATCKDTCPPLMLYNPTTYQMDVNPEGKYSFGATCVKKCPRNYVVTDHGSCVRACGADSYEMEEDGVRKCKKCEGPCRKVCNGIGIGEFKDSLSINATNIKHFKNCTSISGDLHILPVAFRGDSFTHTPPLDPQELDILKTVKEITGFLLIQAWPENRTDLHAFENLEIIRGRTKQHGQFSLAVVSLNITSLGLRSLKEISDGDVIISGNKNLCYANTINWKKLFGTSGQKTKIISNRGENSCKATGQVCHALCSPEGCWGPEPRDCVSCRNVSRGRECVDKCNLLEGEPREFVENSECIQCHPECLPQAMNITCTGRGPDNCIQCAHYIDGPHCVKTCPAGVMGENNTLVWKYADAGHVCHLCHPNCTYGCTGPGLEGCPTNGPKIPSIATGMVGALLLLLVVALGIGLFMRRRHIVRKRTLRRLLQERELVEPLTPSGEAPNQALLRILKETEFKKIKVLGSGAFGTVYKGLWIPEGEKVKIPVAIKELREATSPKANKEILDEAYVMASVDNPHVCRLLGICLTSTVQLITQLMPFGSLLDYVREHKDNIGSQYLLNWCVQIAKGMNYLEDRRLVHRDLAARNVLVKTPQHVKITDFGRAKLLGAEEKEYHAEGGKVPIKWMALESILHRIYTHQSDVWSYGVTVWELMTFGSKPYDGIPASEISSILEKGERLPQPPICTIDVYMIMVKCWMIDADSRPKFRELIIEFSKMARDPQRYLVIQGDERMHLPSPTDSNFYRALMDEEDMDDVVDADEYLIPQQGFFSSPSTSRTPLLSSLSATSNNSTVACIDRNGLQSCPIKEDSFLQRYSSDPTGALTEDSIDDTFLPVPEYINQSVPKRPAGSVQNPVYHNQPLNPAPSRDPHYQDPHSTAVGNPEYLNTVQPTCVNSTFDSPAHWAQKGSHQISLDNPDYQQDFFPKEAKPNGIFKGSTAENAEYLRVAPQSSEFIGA
- assayExplanation: Inhibition of EGFR (C797S L858R) biochemical enzymatic activity (HTRF)
- experimentalContext: EGFR L858-C797S, 1 mM ATP, 1 h, room temperature, read-out: IC50 (nM) @L858-C797S
Recorded log10 IC50 values for a group of compounds are listed next.
assayReadout: log10 IC50 (log10 of the value in nM)

compound	systemUnderTest	number
C[C@@H]1CCCOc2c(cnn2C)-c2cc(cn(C)c2=O)C(=O)Nc2nc3ccc4c(c3n2C1)CCN(C)C4	EGFR (C797S L858R) (Homo sapiens, UniProt P00533, C797S/L858R)	1.83
Cc1cc2cc(n1)-c1cnn(C)c1OCCN1CC3CCC(CC3)(C1)n1c(nc3ccc(N4CCN(C)CC4)cc31)NC2=O	EGFR (C797S L858R) (Homo sapiens, UniProt P00533, C797S/L858R)	0.49
CC(C)N1CCN(c2ccc3nc4n(c3c2)C[C@H](C)CCCOc2c(cnn2C)-c2cc(cn(C)c2=O)C(=O)N4)CC1	EGFR (C797S L858R) (Homo sapiens, UniProt P00533, C797S/L858R)	0.87
C[C@@H]1CCCOc2c(cnn2C)-c2cc(cn(C)c2=O)C(=O)Nc2nc3ccc(N4CCN(C)CC4)c(Cl)c3n2C1	EGFR (C797S L858R) (Homo sapiens, UniProt P00533, C797S/L858R)	1.67
Cc1cc2cc(n1)-c1cnn(C)c1OCCN1CCCCC(C1)n1c(nc3ccccc31)NC2=O (stereo not shown)	EGFR (C797S L858R) (Homo sapiens, UniProt P00533, C797S/L858R)	3.56
CN(C)C1CN(c2ccc3nc4n(c3c2)C23CCC(CN(CCOc5c(cnn5C)-c5cc(cn(C)c5=O)C(=O)N4)C2)C3)CC1F (single isomer, unassigned) [Example A84C]	EGFR (C797S L858R) (Homo sapiens, UniProt P00533, C797S/L858R)	0.68
Cn1ncc2c1OCCN1CC3CCC(C3)(C1)n1c(nc3ccc(N4CCOCC4)cc31)NC(=O)c1cc-2c(=O)n(C)c1 (stereo not shown) [Example A62]	EGFR (C797S L858R) (Homo sapiens, UniProt P00533, C797S/L858R)	1.80
CN1CC2CC1CN2c1ccc2nc3n(c2c1)C12CCC(CN(CCOc4c(cnn4C)-c4cc(cn(C)c4=O)C(=O)N3)C1)C2 (single isomer, unassigned) [Example A105A]	EGFR (C797S L858R) (Homo sapiens, UniProt P00533, C797S/L858R)	3.44
C[C@@H]1CCCOc2c(cnn2C)-c2cc(cn(C)c2=O)C(=O)Nc2nc3ccc(N4CCN(C5CC5)CC4)cc3n2C1	EGFR (C797S L858R) (Homo sapiens, UniProt P00533, C797S/L858R)	1.45
C[C@@H]1CCCOc2c(cnn2C)-c2cc(cn(C)c2=O)C(=O)Nc2nc3ccc(N4CC(N5CCN(C)CC5)C4)cc3n2C1	EGFR (C797S L858R) (Homo sapiens, UniProt P00533, C797S/L858R)	0.93
CN1CCN(c2ccc3nc4n(c3c2)CC2(CCCOc3c(cnn3C)-c3cc(cn(C)c3=O)C(=O)N4)CC2)CC1	EGFR (C797S L858R) (Homo sapiens, UniProt P00533, C797S/L858R)	2.97

###

Recorded IC50 values for a group of compounds are listed next.
- systemUnderTest: EGFR wild type (Homo sapiens, UniProt P00533)
- Construct: purchased Carna Bio
- Sequence (P00533 25-1210): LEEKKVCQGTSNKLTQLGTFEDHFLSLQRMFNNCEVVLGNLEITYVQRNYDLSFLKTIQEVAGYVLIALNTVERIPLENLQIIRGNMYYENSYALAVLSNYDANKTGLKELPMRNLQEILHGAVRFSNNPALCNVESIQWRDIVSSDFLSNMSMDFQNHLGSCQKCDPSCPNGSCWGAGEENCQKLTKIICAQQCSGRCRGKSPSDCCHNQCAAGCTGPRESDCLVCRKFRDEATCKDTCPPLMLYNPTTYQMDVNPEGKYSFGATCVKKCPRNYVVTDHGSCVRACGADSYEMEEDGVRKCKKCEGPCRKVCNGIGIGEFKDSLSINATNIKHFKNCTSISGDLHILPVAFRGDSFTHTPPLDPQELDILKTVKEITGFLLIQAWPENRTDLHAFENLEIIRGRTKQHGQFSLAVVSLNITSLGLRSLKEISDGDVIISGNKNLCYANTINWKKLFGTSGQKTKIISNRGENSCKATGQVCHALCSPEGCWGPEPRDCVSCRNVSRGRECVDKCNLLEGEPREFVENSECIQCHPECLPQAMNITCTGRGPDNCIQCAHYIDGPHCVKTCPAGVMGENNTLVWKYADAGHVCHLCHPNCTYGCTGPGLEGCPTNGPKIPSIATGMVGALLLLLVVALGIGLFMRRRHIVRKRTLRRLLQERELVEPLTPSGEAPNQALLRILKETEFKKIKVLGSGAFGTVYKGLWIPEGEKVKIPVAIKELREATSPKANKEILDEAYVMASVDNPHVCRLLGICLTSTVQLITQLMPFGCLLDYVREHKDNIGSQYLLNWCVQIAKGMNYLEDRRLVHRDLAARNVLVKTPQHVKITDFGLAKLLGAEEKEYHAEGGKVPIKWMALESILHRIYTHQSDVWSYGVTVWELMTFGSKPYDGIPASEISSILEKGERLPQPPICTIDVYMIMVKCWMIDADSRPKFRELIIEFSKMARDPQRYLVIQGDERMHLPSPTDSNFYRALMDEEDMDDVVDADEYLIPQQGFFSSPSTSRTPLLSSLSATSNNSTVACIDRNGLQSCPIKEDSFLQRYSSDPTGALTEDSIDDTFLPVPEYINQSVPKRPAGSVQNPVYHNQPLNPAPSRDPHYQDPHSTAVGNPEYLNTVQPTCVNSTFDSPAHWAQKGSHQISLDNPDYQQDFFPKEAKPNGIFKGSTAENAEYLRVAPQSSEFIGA
- assayExplanation: Inhibition of EGFR wild type biochemical enzymatic activity (HTRF)
- experimentalContext: EGFR WT, 1 mM ATP, 1 h, room temperature, read-out: IC50 (nM) @WT
assayReadout: IC50

compound	assayReadout	result
C[C@@H]1CCCNc2c(cnn2C)-c2cc(cn(C)c2=O)C(=O)Nc2nc3ccc(N4CCN(C)CC4)cc3n2C1	IC50	> 5000 nM
CN(C)[C@@H]1CCN(c2ccc3nc4n(c3c2)C23CCC(CC2)CN(CCOc2c(cnn2C)-c2cc(cn(C)c2=O)C(=O)N4)C3)C1	IC50	> 5000 nM
Cn1ncc2c1OCCN1CC3CCC(C3)(C1)n1c(nc3ccc(N4CCC(N5CC(F)C5)C4)cc31)NC(=O)c1cc-2c(=O)n(C)c1 (single isomer, unassigned) [Example A94B]	IC50	235 nM

###

- systemUnderTest: EGFR[T790M/C797S/d746-750] (Homo sapiens, UniProt P00533, C797S/DEL746-750/T790M)
- Construct: purchased Carna Bio
- Sequence (P00533 with tags, fused parts or gaps DEL746-750/T790M/C797S limits assumed): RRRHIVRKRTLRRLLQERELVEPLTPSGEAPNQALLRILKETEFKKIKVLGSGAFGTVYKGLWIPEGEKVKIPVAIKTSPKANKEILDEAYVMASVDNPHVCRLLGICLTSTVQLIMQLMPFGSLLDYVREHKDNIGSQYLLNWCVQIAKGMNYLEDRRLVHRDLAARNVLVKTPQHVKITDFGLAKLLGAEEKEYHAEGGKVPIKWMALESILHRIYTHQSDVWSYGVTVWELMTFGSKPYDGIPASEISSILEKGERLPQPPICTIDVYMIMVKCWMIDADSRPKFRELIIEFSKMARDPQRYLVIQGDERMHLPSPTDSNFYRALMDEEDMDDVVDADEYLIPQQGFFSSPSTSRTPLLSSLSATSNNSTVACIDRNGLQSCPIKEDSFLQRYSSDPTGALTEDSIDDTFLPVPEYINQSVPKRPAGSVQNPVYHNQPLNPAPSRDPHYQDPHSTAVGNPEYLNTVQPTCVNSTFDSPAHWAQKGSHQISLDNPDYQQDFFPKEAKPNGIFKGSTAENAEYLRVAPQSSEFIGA
- assayExplanation: Inhibition of EGFR[T790M/C797S/d746-750] biochemical enzymatic activity (HTRF)
- experimentalContext: EGFR T790M-C797S-Del19, 1 mM ATP, 1 h, room temperature, read-out: IC50 (nM) @T790M - C797S - Del19
- Method: Biological Example 1: Inhibition of EGFR WT and Mutant Biochemical Enzymatic Activity The inhibition potency of compounds against these enzymes was assessed using Homogenous Time Resolved Fluorescence approach (HTRF, CisBio. Cat No. 62TKOPEJ). Inhibitory effects of the compounds were determined by measuring the enzymatic activity of EGFR enzyme phosphorylates 1 μM TK Substrate-biotin in the presence of 1 mM adenosine-5′-triphosphate (ATP) and varying concentrations of the test compound. […]

molecule	IC50 [nM]
C[C@@H]1CCCOc2c(cnn2C)-c2cc(cn(C)c2=O)C(=O)Nc2nc3ccc(N4CCNCC4)cc3n2C1	4.4
CN(C)CCN(C)c1ccc2nc3n(c2c1)C12CCC(CN(CCOc4c(cnn4C)-c4cc(cn(C)c4=O)C(=O)N3)C1)C2 (single isomer, unassigned) [Example A85A]	3660
C[C@@H]1CCCOc2c(cnn2C)-c2cc(cn(C)c2=O)C(=O)Nc2nc3ccc(N4CC(N5CCN(C)CC5)C4)cc3n2C1	3.9
CCN1CCOc2c(cnn2C)-c2cc(cn(C)c2=O)C(=O)Nc2nc3ccccc3n2C(C)C1 (stereo not drawn)	1230
CC(C)N1CCN(c2ccc3nc4n(c3c2)C23CCC(CN(CCOc5c(cnn5C)-c5cc(cn(C)c5=O)C(=O)N4)C2)C3)CC1 (single isomer, unassigned) [Example A108A]	3170
C[C@@H]1CCCOc2c(cnn2CC(F)(F)F)-c2cc(cn(C)c2=O)C(=O)Nc2nc3ccc(N4CCN(C)CC4)cc3n2C1	40
CN1CCC2(CCN(c3ccc4nc5n(c4c3)C34CCC(CN(CCOc6c(cnn6C)-c6cc(cn(C)c6=O)C(=O)N5)C3)C4)C2)C1 (single isomer, unassigned) [Example A81B]	2.3
CN1CCN(c2ccc3c(c2)nc2n3C34CCC(CN(CCOc5c(cnn5C)-c5cc(cn(C)c5=O)C(=O)N2)C3)C4)CC1 (stereo not drawn) [Example A60A]	117
Cn1ncc2c1OCCN(CC(F)(F)F)CCn1c(nc3ccccc31)NC(=O)c1cc-2c(=O)n(C)c1	26
Cn1ncc2c1OCCN1CC3CCC(C3)(C1)n1c(nc3cc(F)c(N4CCOCC4)cc31)NC(=O)c1cc-2c(=O)n(C)c1 (single isomer, unassigned) [Example A118B]	2.9
Cn1ncc2c1OCCN1CC3(CCCC1C3)n1c(nc3ccc(N4CCOCC4)cc31)NC(=O)c1cc-2c(=O)n(C)c1 (stereo not drawn)	316

###

- systemUnderTest: EGFR (d746-750 C797S) (Homo sapiens, UniProt P00533, C797S/DEL746-750)
- Construct: purchased signalchem
- Sequence (P00533 with tags, fused parts or gaps DEL746-750/C797S limits assumed): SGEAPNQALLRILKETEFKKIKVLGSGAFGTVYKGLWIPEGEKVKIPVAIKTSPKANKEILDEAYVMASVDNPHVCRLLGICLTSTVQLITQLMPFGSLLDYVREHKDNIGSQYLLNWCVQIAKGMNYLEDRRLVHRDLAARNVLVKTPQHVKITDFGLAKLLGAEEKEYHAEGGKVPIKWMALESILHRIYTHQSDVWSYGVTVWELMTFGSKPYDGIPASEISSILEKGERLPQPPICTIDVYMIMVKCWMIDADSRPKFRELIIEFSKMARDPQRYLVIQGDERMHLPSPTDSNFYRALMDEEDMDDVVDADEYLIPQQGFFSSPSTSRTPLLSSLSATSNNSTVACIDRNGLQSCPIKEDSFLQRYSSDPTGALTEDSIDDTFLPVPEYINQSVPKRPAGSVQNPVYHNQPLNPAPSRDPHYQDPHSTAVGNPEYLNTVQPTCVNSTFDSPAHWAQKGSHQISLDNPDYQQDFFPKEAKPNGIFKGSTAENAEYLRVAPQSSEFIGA
- assayExplanation: Inhibition of EGFR (d746-750 C797S) biochemical enzymatic activity (HTRF)
- experimentalContext: EGFR Del19-C797S, 1 mM ATP, 1 h, room temperature, read-out: IC50 (nM) @Del19-C797S
Grouping rule (IC50): bin 0 (below 2 nM), bin 1 (2 nM to below 5 nM), bin 2 (5 nM or more)

compound	class
CN(C)CCN(C)c1ccc2nc3n(c2c1)C12CCC(CN(CCOc4c(cnn4C)-c4cc(cn(C)c4=O)C(=O)N3)C1)C2 (single isomer, unassigned) [Example A85B]	bin 0
C[C@@H]1CCCOc2c(cnn2C)-c2cc(cn(C)c2=O)C(=O)Nc2nc3ccc(N4CCN(CC(F)(F)F)CC4)cc3n2C1	bin 2
Cn1ncc2c1OCCN1CC3CCC(C3)(C1)n1c(nc3ccc(N4CCC(N5CC(F)C5)C4)cc31)NC(=O)c1cc-2c(=O)n(C)c1 (single isomer, unassigned) [Example A94A]	bin 2
Cn1ncc2c1OCCN1CC3CCC(C3)(C1)n1c(nc3ccc(N4CCOCC4)cc31)NC(=O)c1cc-2c(=O)n(C)c1 (stereo not drawn) [Example A62]	bin 1
CN1CCN(C2CCN(c3ccc4nc5n(c4c3)C34CCC(CN(CCOc6c(cnn6C)-c6cc(cn(C)c6=O)C(=O)N5)C3)C4)C2)CC1 (single isomer, unassigned) [Example A80B1]	bin 1
CN1CCC2(CCN(c3ccc4nc5n(c4c3)C34CCC(CN(CCOc6c(cnn6C)-c6cc(cn(C)c6=O)C(=O)N5)C3)C4)CC2)C1 (single isomer, unassigned) [Example A82B]	bin 0
C[C@@H]1CCCOc2c(cnn2C)-c2cc(cn(C)c2=O)C(=O)Nc2nc3ccc(N4CCNCC4)c(Cl)c3n2C1	bin 1
CN1CCN(c2ccc3nc4n(c3c2)CCN(CC(F)(F)F)CCOc2c(cnn2C2CC2)-c2cc(cn(C)c2=O)C(=O)N4)CC1	bin 1
CN1CCN(c2ccc3nc4n(c3c2)CC2(CCCOc3c(cnn3C)-c3cc(cn(C)c3=O)C(=O)N4)CC2)CC1	bin 2
CN1CCN(C2CN(c3ccc4nc5n(c4c3)C34CCC(CN(CCOc6c(cnn6C)-c6cc(cn(C)c6=O)C(=O)N5)C3)C4)C2)CC1 (single isomer, unassigned) [Example A70B]	bin 0
C[C@@H]1CCCOc2c(cnn2C)-c2cc(cn(C)c2=O)C(=O)Nc2nc3ccc(N4CCC(N5CCN(C)CC5)C4)cc3n2C1 (stereo partly drawn)	bin 1
